- assaySystem: F508delCFTR (Homo sapiens, UniProt P13569, DEL508-508)
- Construct: expressed in transfected cells; host or cells: CFBE41o- human lung-derived epithelial cells (CFBE4lo-F508delCFTR-HRP), doxycycline-inducible
- Sequence (P13569 with tags, fused parts or gaps DEL508-508): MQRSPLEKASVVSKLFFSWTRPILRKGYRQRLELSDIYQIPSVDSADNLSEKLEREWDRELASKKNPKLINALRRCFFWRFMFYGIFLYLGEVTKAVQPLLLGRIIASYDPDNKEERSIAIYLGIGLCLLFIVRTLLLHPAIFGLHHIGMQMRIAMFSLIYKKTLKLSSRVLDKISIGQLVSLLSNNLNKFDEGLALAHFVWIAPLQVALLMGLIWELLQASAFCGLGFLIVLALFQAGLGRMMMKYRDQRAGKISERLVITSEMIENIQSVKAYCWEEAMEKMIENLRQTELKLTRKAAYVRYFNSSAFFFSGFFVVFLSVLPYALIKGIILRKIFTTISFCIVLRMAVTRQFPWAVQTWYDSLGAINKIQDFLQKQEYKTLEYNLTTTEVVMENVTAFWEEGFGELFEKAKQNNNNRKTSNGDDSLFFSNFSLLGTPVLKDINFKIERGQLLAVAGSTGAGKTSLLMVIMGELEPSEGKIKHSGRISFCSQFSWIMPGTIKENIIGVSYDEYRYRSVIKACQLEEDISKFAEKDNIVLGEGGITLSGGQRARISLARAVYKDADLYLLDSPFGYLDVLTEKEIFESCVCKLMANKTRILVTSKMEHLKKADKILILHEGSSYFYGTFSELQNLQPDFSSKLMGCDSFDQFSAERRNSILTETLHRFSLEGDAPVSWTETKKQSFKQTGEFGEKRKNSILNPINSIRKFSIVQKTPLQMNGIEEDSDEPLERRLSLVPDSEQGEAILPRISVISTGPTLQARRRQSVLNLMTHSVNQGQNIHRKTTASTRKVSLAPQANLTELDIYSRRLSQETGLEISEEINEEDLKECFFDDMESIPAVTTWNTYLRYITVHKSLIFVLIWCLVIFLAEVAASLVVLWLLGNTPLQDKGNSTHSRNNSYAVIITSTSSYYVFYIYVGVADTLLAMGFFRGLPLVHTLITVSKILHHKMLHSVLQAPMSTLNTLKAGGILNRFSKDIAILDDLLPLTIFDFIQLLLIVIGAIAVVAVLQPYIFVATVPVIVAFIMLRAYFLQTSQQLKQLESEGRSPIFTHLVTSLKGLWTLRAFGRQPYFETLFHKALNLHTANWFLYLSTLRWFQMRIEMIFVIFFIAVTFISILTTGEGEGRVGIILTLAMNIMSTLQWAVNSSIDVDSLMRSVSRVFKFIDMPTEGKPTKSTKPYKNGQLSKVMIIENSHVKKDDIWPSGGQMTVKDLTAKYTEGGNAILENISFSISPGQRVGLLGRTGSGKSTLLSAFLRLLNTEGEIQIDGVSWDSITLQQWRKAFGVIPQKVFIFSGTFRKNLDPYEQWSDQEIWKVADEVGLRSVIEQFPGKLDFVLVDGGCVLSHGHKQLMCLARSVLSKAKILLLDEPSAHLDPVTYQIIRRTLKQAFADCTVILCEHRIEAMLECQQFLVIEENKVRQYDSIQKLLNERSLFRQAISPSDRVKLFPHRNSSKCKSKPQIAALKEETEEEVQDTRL
- assayExplanation: Cell Surface Expression-Horse Radish Peroxidase (CSE-HRP) Assay
- Format: cell-based
- details: CSE-HRP; with co-corrector (2 μM of 3-[(2R,4R)-4-({[1-(2,2-difluoro-1,3-benzodioxol-5-yl)cyclopropyl]carbonyl}amino)-7-methoxy-3,4-dihydro-2H-chromen-2-yl]benzoic acid); read-out: EC50 (with co-corrector)
pEC50: −log10 of the molar value.
resultType: pEC50

Enquiry: Request the reported pEC50 associated with COc1ccc(C(C)(C)C)cc1CN[C@H]1[C@H](C(C)(C)C)[C@@H](C(=O)O)N(C(=O)CC2CCCOC2)[C@H]1c1ccccc1 (stereo partly drawn)
Return: 5.00 to 6.00

Enquiry: Form field: reported pEC50 of COc1cc(C(F)(F)F)ccc1CN[C@H]1[C@H](C(C)(C)C)[C@@H](C(=O)O)N(C(=O)[C@H](OC)c2ccccc2)[C@H]1c1cccnc1N(C)C [II-87]
Return: 5.00 to 6.00

Enquiry: Name the recorded pEC50 for `CC(C)c1ccccc1[C@H]1[C@@H](NCc2cccc3c2OC(C)(C)C3)[C@H](C(C)(C)C)[C@@H](C(=O)O)N1C(=O)[C@@H]1CCCO1` .
Return: 5.00 to 6.00

Enquiry: Requested field: pEC50. Item: CC(C)(C)[C@@H]1[C@@H](NCc2cc(C(F)(F)F)cnc2Cl)[C@@H](c2ccccc2)N(C(=O)C2CCCCC2)[C@H]1C(=O)O (racemic)
Return: > 6.00

Enquiry: Quick check: pEC50 of `COc1ncc(C(F)(F)F)cc1CN[C@H]1[C@H](C(C)(C)C)[C@@H](C(=O)O)N(C(=O)[C@@H]2CCCO2)[C@H]1c1ccccc1Br` ?
Return: > 6.00

Enquiry: Data request, read-out pEC50, for `COc1ncc(C(F)(F)F)cc1CN[C@H]1[C@H](C(C)(C)C)[C@@H](C(=O)O)N(C(=O)[C@@H]2CCCCO2)[C@H]1c1ccccc1Br`
Return: > 6.00
